Values compiled from patent US20260116991A1.

TESTED_ON: T1, human GPC3-His protein (human, UniProt P51654 25-559)
T1 construct: Bought protein; also called human GPC3 protein; not shown: His tag
PROTOCOL_DETAILS: ELISA, coated human GPC3, antibody 100 nM;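 also: antibodies bound to antigen-coated 96-well plates (1 µg/mL), 2 h at 37 °C, detected with HRP-labelled secondary antibody and TMB substrate, absorbance read at 450 nm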
MEASURED_METRIC: OD450 nm (OD450)
Report as a plain number; the unit OD450 is understood.

[[record]]
binder = "F3.54.12 human-murine chimeric antibody (antibody, human IgG1, kappa, V domains shown) VH: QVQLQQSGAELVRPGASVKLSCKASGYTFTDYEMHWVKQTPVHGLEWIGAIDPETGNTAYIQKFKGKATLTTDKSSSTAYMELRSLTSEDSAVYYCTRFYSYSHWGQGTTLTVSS VL: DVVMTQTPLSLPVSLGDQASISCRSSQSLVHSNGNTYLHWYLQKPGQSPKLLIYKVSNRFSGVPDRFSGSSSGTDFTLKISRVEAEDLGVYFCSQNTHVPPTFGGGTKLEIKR"
measured_metric = "OD450 nm"
units_label = "OD450"
observed_value = 2.44

[[record]]
binder = "F1.21.8 human-murine chimeric antibody (antibody, human IgG1, kappa, V domains shown) VH: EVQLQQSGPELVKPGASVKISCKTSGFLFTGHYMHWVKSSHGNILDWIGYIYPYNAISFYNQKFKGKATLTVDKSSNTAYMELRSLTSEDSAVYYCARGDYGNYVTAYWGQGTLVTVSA VL: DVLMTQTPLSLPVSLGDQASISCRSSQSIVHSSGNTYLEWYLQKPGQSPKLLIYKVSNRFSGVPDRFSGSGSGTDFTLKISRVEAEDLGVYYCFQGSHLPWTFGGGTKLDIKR"
measured_metric = "OD450 nm"
units_label = "OD450"
observed_value = 2


Attention now turns to another entry.
QUERY: Look up OD450 nm: F4.21.16 human-murine chimeric antibody (antibody, human IgG1, kappa, V domains shown) VH: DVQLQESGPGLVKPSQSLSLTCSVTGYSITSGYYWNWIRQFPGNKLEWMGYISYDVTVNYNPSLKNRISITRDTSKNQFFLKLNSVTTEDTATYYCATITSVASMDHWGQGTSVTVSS VL: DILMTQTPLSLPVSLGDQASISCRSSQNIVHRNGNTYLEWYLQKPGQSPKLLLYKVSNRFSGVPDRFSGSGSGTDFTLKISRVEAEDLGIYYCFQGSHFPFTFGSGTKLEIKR
RESULT: 0.52
